- System: HT29 colon
- protocol-summary: NCI tumour cell line growth inhibition, 48 h
The following compounds are shown together with reported TGI values.

>  <compound>
COc1cccc2c3cccc(OC)c3c3[nH]cnc3c12

>  <TGI>
3 µM

$$$$
>  <compound>
CC(=O)c1cc2c3c(c1)c1cc4c(cc1c(=O)n3CC2)OCO4

>  <TGI>
> 100 µM

$$$$
>  <compound>
C[C@]1(O)CC(=O)c2c(c(-c3ccc4cc5c(c(O)c4c3O)C(=O)C[C@@](C)(O)C5)c3cccc(O)c3c2O)C1

>  <TGI>
20 µM

$$$$
>  <compound>
COC(=O)C(CCC1(C)OCCO1)C(C)=O (centres undefined)

>  <TGI>
> 100 µM

$$$$
>  <compound>
Fc1ccc(C2(CCCN3CCc4[nH]c5cc(F)ccc5c4C3)OCCO2)cc1

>  <TGI>
15 µM

$$$$
>  <compound>
CCN(CC)CCC(=O)c1ccc(Oc2ccc(C)cc2)cc1

>  <TGI>
35.6 µM

$$$$
>  <compound>
Nc1cc(OCc2ccccc2)c(OCc2ccccc2)cc1C=O

>  <TGI>
> 100 µM

$$$$
>  <compound>
CC(Br)C(=O)c1ccc2cc(Br)c3ccccc3c2c1 (centres undefined)

>  <TGI>
31.8 µM

$$$$
>  <compound>
C=CCOC1=C2CC[C@H](O)[C@@]2(C)CCC1=O

>  <TGI>
> 100 µM

$$$$
>  <compound>
Clc1ccc(N/N=C/c2ccccn2)nc1

>  <TGI>
> 100 µM

$$$$
>  <compound>
NC(=O)c1ncn(C2OC(CO)C(O)C2O)n1 (centres undefined)

>  <TGI>
> 100 µM

$$$$
>  <compound>
Cc1cc(N2CCOCC2)nc(N(CCCNc2ccnc3cc(Cl)ccc23)Cc2ccc3c(c2)OCO3)n1

>  <TGI>
2.8 µM

$$$$
>  <compound>
N#Cc1cc(-c2ccccc2)[nH]c1-c1nccc2ccccc12

>  <TGI>
> 100 µM

$$$$
>  <compound>
C=CC[Se]C(=O)c1ccccc1OC(C)=O

>  <TGI>
> 100 µM

$$$$
>  <compound>
CCC(C#N)N(Cc1ccc(CN(C(=O)c2ccccc2)C(C#N)CC)cc1)C(=O)c1ccccc1 (centres undefined)

>  <TGI>
43.9 µM

$$$$
>  <compound>
CCOC(=O)c1ccc(-c2cccs2)n1C

>  <TGI>
> 100 µM

$$$$
>  <compound>
C=CC1(c2ccc(Cl)c(Cl)c2)OCCO1

>  <TGI>
> 100 µM

$$$$
>  <compound>
NC(=O)Cc1ccccc1Oc1nccc(-c2c(-c3ccc(F)cc3)ncn2C2CCNCC2)n1

>  <TGI>
> 25 µM

$$$$
>  <compound>
CCOC(=O)CSc1[nH]c2nc(C)nc(Cl)c2c1C#N

>  <TGI>
> 10 µM

$$$$
>  <compound>
Oc1c(Cl)ccc2cccnc12

>  <TGI>
> 100 µM

$$$$
>  <compound>
Nc1ccc(S(=O)(=O)Nc2nc3ccccc3nc2Nc2ccc(S(N)(=O)=O)cc2)cc1

>  <TGI>
> 100 µM

$$$$
>  <compound>
COc1cc(O)c2c(=O)c3ccccc3n(C)c2c1

>  <TGI>
> 100 µM

$$$$
>  <compound>
C/C(=N\N=C(\N)OB(F)F)c1ccccn1

>  <TGI>
> 100 µM

$$$$
>  <compound>
N#Cc1cc2c(n(C3OC(CO)C(O)C(O)C3O)c1=S)CCCCC2 (centres undefined)

>  <TGI>
> 100 µM

$$$$
>  <compound>
CC12Oc3ccc4ccccc4c3C1c1c(ccc3ccccc13)O2 (centres undefined)

>  <TGI>
> 100 µM

$$$$
>  <compound>
Nc1sccc1S(=O)(=O)c1ccsc1N

>  <TGI>
> 100 µM

$$$$
>  <compound>
Nc1ccc(-c2nc3cc(F)ccc3s2)cc1Br

>  <TGI>
> 100 µM

$$$$
>  <compound>
O=S1(=O)COc2ccccc2-c2ncncc21

>  <TGI>
> 100 µM

$$$$
>  <compound>
CCOC(=O)C(=CNC(Cc1c[nH]c2ccccc12)C(=O)OC)C(=O)OCC (centres undefined)

>  <TGI>
> 100 µM

$$$$
>  <compound>
O=C1OCC2=C1C(c1cccc([N+](=O)[O-])c1)c1cc3c(cc1N2CCO)CCC3 (centres undefined)

>  <TGI>
21.6 µM

$$$$
>  <compound>
CCN(CC)CC(O)CNc1ccc(NCC(O)CCl)c2c1C(=O)c1ccccc1C2=O (centres undefined)

>  <TGI>
16.5 µM

$$$$
>  <compound>
O=S1c2ccccc2N=C(c2ccc3ccccc3c2)CC1c1ccccc1 (centres undefined)

>  <TGI>
35.1 µM

$$$$
>  <compound>
CSc1nc(C)cc(N(C)c2ccccc2)n1

>  <TGI>
49.5 µM

$$$$
>  <compound>
CN(C)c1cc2c(cc1Sc1nc3c(N)nccc3n1CCNCC(C)(C)C)OCO2

>  <TGI>
11.1 µM

$$$$
>  <compound>
Oc1c(Cl)cc(C(c2cc(Cl)c(O)c(Cl)c2)C(c2cc(Cl)c(O)c(Cl)c2)c2cc(Cl)c(O)c(Cl)c2)cc1Cl

>  <TGI>
16.3 µM

$$$$
>  <compound>
Cc1ccccc1NC(=O)N/C(N)=N/c1nc2ccccc2s1

>  <TGI>
> 100 µM

$$$$
>  <compound>
CC(=O)OCC1OC(O[C@@H]2C[C@H]3C(C)(C)[C@H](OC(C)=O)CC[C@]3(C)[C@H]3CC[C@@]45C[C@H](O)C[C@H](C)[C@@H]4CC=C5[C@@]32C)C(O)C(O)C1O (some centres undefined)

>  <TGI>
3.7 µM

$$$$
>  <compound>
CCC[CH2][Sn]([CH2]CCC)([O]C(=O)c1cc(OC)c(OC)c(OC)c1)[O]C(=O)c1cc(OC)c(OC)c(OC)c1

>  <TGI>
3.33 µM

$$$$
>  <compound>
NC(N)=NS(=O)(=O)c1ccc(Nc2c3ccccc3nc3c(C(=O)N4CCN(CCO)CC4)ccc(Cl)c23)cc1

>  <TGI>
> 100 µM

$$$$

// data source = PubChem BioAssay (NCI)
